test system: Staphylococcus aureus; assay: Antibacterial activity against Staphylococcus aureus after 18 hrs by broth dilution method; type: functional
Known MIC of a selection of molecules
Field: numeric (µg/mL). Do not append units.

Check out these entries, answers already filled in.
Param readout = MIC; param system = Staphylococcus aureus; param query = COc1ccc2cc(/C=C3\SC(=S)NC3=O)c3nnnn3c2c1 ; response: value 247

Param readout = MIC; param system = Staphylococcus aureus; param query = COc1ccc2c(c1)cc(/C=C1\SC(=S)NC1=O)c1nnnn12 ; response: value 144

Param readout = MIC; param system = Staphylococcus aureus; param query = Cc1ccc2cc(/C=C3\SC(=S)NC3=O)c3nnnn3c2c1 ; response: value 205

Param readout = MIC; param system = Staphylococcus aureus; param query = O=C1NC(=S)S/C1=C\c1cc2ccccc2n2nnnc12 ; response: value 153

Param readout = MIC; param system = Staphylococcus aureus; param query = Cc1cccc2cc(/C=C3\SC(=S)NC3=O)c3nnnn3c12 ; response: value 127

Param readout = MIC; param system = Staphylococcus aureus; param query = Cc1ccc2c(c1)cc(/C=C1\SC(=S)NC1=O)c1nnnn12 ; response: value 159

Param readout = MIC; param system = Staphylococcus aureus; param query = O=C(O)CN1C(=O)/C(=C/c2cc3ccccc3n3nnnc23)SC1=S ; response: value 151

Param readout = MIC; param system = Staphylococcus aureus; param query = CC1(C)S[C@@H]2[C@H](NC(=O)[C@H](N)c3ccccc3)C(=O)N2[C@H]1C(=O)O ; response: value 1

Consider the record given below.
Param readout = MIC; param system = Staphylococcus aureus; param query = Cc1cccc2cc(/C=C3\SC(=S)N(CC(=O)O)C3=O)c3nnnn3c12 ; response: value 106

###

experiment: Antitubercular activity against Mycobacterium bovis BCG ATCC 35743 incubated for 40 mins by XTT Reduction Menadione Assay; format: functional, Mycobacterium bovis BCG str. ATCC 35743; conditions: Mycobacterium tuberculosis variant bovis BCG, ATCC 35743, 40 min
experimental.readout: MIC (µg/mL)
Field: numeric (µg/mL). Do not append units.

Form field: reported MIC of O=C(O)CCN1C(=O)/C(=C/c2cc3ccccc3n3nnnc23)SC1=S 182

Form field: reported MIC of Cc1ccc2cc(/C=C3\SC(=S)NC3=O)c3nnnn3c2c1 2.01

Form field: reported MIC of Cc1ccc2c(c1)cc(/C=C1\SC(=S)N(CCC(=O)O)C1=O)c1nnnn12 51.3

Form field: reported MIC of Cc1cccc2cc(/C=C3\SC(=S)N(CC(=O)O)C3=O)c3nnnn3c12 86

Consider the record given below.
Form field: reported MIC of COc1ccc2cc(/C=C3\SC(=S)N(CC(=O)O)C3=O)c3nnnn3c2c1 121

###

assay: Selectivity index, ratio of GI50 for human HeLa cells to MIC for Mycobacterium bovis BCG ATCC 35743; type: toxicity, cell-based; conditions: read-out: Selectivity Index
Known selectivity ratio of a selection of molecules

Check out these entries, answers already filled in.
Form field: reported selectivity ratio of Cc1ccc2cc(/C=C3\SC(=S)NC3=O)c3nnnn3c2c1 49.8

Form field: reported selectivity ratio of COc1ccc2cc(/C=C3\SC(=S)N(CC(=O)O)C3=O)c3nnnn3c2c1 4.13

More entries:
Form field: reported selectivity ratio of CO[C@H]1/C=C/O[C@@]2(C)Oc3c(C)c(O)c4c(O)c(c(/C=N/N5CCN(C)CC5)c(O)c4c3C2=O)NC(=O)/C(C)=C\C=C\[C@H](C)[C@H](O)[C@@H](C)[C@@H](O)[C@@H](C)[C@H](OC(C)=O)[C@@H]1C [RIFAMPIN] > 112

###

test system: Candida albicans; experiment: Antifungal activity against Candida albicans NCIM 3471 after 48 hrs by agar cup plate method; type: functional; settings: NCIM 3471, 48 h
Known MIC of a selection of compounds
Field: numeric (µg/mL). Do not append units.

Check out these entries, answers already filled in.
Form field: reported MIC of COc1ccc2c(c1)cc(/C=C1\SC(=S)N(CC(=O)O)C1=O)c1nnnn12 50

Form field: reported MIC of COc1ccc2c(c1)cc(/C=C1\SC(=S)N(CCC(=O)O)C1=O)c1nnnn12 150

Form field: reported MIC of Cc1ccc2cc(/C=C3\SC(=S)NC3=O)c3nnnn3c2c1 150

Form field: reported MIC of Cc1cccc2cc(/C=C3\SC(=S)N(CCC(=O)O)C3=O)c3nnnn3c12 100

Form field: reported MIC of Cc1cccc2cc(/C=C3\SC(=S)N(CC(=O)O)C3=O)c3nnnn3c12 25

More entries:
Form field: reported MIC of COc1ccc2c(c1)cc(/C=C1\SC(=S)NC1=O)c1nnnn12 150

Form field: reported MIC of Cc1cccc2cc(/C=C3\SC(=S)NC3=O)c3nnnn3c12 25

Form field: reported MIC of Cc1ccc2cc(/C=C3\SC(=S)N(CCC(=O)O)C3=O)c3nnnn3c2c1 25

Form field: reported MIC of COc1ccc2cc(/C=C3\SC(=S)N(CC(=O)O)C3=O)c3nnnn3c2c1 100

Form field: reported MIC of O=C(O)CN1C(=O)/C(=C/c2cc3ccccc3n3nnnc23)SC1=S 50

Form field: reported MIC of COc1ccc2cc(/C=C3\SC(=S)NC3=O)c3nnnn3c2c1 150

Form field: reported MIC of Cc1ccc2cc(/C=C3\SC(=S)N(CC(=O)O)C3=O)c3nnnn3c2c1 75

Form field: reported MIC of COc1ccc2cc(/C=C3\SC(=S)N(CCC(=O)O)C3=O)c3nnnn3c2c1 100

###

Known IC90 of a selection of compounds
test system: Mycobacterium tuberculosis; test: Antitubercular activity against active Mycobacterium tuberculosis H37Ra ATCC 25177 incubated for 40 mins by XTT Reduction Menadione Assay; type: functional; settings: H37Ra ATCC 25177, 40 min

Check out these entries, answers already filled in.
Form field: reported IC90 of Cc1ccc2c(c1)cc(/C=C1\SC(=S)NC1=O)c1nnnn12 > 250 µg/mL

Form field: reported IC90 of Cc1ccc2cc(/C=C3\SC(=S)N(CCC(=O)O)C3=O)c3nnnn3c2c1 45 µg/mL

Form field: reported IC90 of Cc1ccc2cc(/C=C3\SC(=S)N(CC(=O)O)C3=O)c3nnnn3c2c1 > 250 µg/mL

Form field: reported IC90 of Cc1ccc2cc(/C=C3\SC(=S)NC3=O)c3nnnn3c2c1 5.5 µg/mL

Consider the record given below.
Form field: reported IC90 of COc1ccc2cc(/C=C3\SC(=S)N(CC(=O)O)C3=O)c3nnnn3c2c1 159 µg/mL

###

Known MIC of a selection of molecules
test: Antitubercular activity against Mycobacterium bovis BCG ATCC 35743 incubated for 40 mins by XTT Reduction Menadione Assay; format: functional, Mycobacterium bovis BCG str. ATCC 35743; conditions: Mycobacterium tuberculosis variant bovis BCG, ATCC 35743, 40 min

Check out these entries, answers already filled in.
Form field: reported MIC of Cc1cccc2cc(/C=C3\SC(=S)N(CCC(=O)O)C3=O)c3nnnn3c12 198 µg/mL

Form field: reported MIC of COc1ccc2cc(/C=C3\SC(=S)NC3=O)c3nnnn3c2c1 > 250 µg/mL

Form field: reported MIC of COc1ccc2c(c1)cc(/C=C1\SC(=S)NC1=O)c1nnnn12 > 250 µg/mL

More entries:
Form field: reported MIC of Cc1ccc2c(c1)cc(/C=C1\SC(=S)N(CC(=O)O)C1=O)c1nnnn12 84.4 µg/mL

Form field: reported MIC of Cc1ccc2cc(/C=C3\SC(=S)N(CC(=O)O)C3=O)c3nnnn3c2c1 24.2 µg/mL

###

system: Aspergillus flavus; test: Antifungal activity against Aspergillus flavus NCIM 539 after 48 hrs by agar cup plate method; format: functional; conditions: NCIM 539, 48 h
Known MIC of a selection of compounds
Hi, when you answer, please include the unit after the number. Thanks!

Check out these entries, answers already filled in.
Form field: reported MIC of O=C1NC(=S)S/C1=C\c1cc2ccccc2n2nnnc12 125 µg/mL

Form field: reported MIC of COc1ccc2c(c1)cc(/C=C1\SC(=S)NC1=O)c1nnnn12 150 µg/mL

Form field: reported MIC of Cc1ccc2cc(/C=C3\SC(=S)NC3=O)c3nnnn3c2c1 125 µg/mL

Form field: reported MIC of COc1ccc2c(c1)cc(/C=C1\SC(=S)N(CC(=O)O)C1=O)c1nnnn12 150 µg/mL

Form field: reported MIC of Cc1ccc2c(c1)cc(/C=C1\SC(=S)NC1=O)c1nnnn12 100 µg/mL

More entries:
Form field: reported MIC of Cc1ccc2c(c1)cc(/C=C1\SC(=S)N(CCC(=O)O)C1=O)c1nnnn12 75 µg/mL

Form field: reported MIC of Clc1ccc(COC(Cn2ccnc2)c2ccc(Cl)cc2Cl)c(Cl)c1 (stereo not given) 12.5 µg/mL

Form field: reported MIC of COc1ccc2cc(/C=C3\SC(=S)N(CC(=O)O)C3=O)c3nnnn3c2c1 150 µg/mL

Form field: reported MIC of Cc1cccc2cc(/C=C3\SC(=S)N(CCC(=O)O)C3=O)c3nnnn3c12 50 µg/mL

Form field: reported MIC of Cc1cccc2cc(/C=C3\SC(=S)N(CC(=O)O)C3=O)c3nnnn3c12 50 µg/mL
